system: 598228-144-R-J1-PDC complex spheroid viability; assay: Anticancer human tumor 598228-144-R-J1-PDC patient-derived serous endometrial adenocarcinoma cell line growth inhibition [GQUAD]; details: second compound 3.16 µM; first compound 0.1 µM; active compounds read low
measured-attribute: viability, T/C (%)
One number for each entry, in %.

{"molecule": "COc1ccc([C@@H](O)c2cc(-c3ncnc4cc(N5CCOCC5)ccc34)c(F)cc2Cl)nn1 + Cc1[nH]c2ccc(F)cc2c1-c1nc2c3cccnc3c3ncccc3c2[nH]1", "viability, T/C / %": 44.9}

Count: 2. Required value per item: viability, T/C.
1. COc1ncnc(C2CC2)c1-c1ncc2cnn(Cc3ccc(-c4nc(C(F)(F)F)cn4C(C)C)cc3)c2n1 + Cc1cnc(CNC(=O)c2c(=O)c3ccc(N4CCCN(C)CC4)nc3n3c2sc2ccccc23)cn1
2. C=CCn1c(=O)c2cnc(Nc3ccc(N4CCN(C)CC4)cc3)nc2n1-c1cccc(C(C)(C)O)n1 + Cc1cnc(CNC(=O)c2c(=O)c3ccc(N4CCCN(C)CC4)nc3n3c2sc2ccccc23)cn1

## Result
65.9
47.6

Count: 2. Required value per item: viability, T/C.
1. Cc1cccc(N(C)C(=O)C2C(O)CCN2c2nc(C)cc(C(F)(F)F)c2C#N)c1 (stereo not given) + Cc1[nH]c2ccc(F)cc2c1-c1nc2c3cccnc3c3ncccc3c2[nH]1
2. O=C(NO)c1cnc(N2CCN(S(=O)(=O)c3ccc4ccccc4c3)CC2)nc1 + Cc1cnc(CNC(=O)c2c(=O)c3ccc(N4CCCN(C)CC4)nc3n3c2sc2ccccc23)cn1

## Result
[45.4, 0.34]

* * *

So I've got a bunch of compounds here, and I need their viability, T/C values.
system: 598228-144-R-J1-PDC complex spheroid viability; experiment: Anticancer human tumor 598228-144-R-J1-PDC cell line growth inhibition [GQUAD]; details: second compound 0.316 µM; first compound 1 µM; active compounds read low;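 also: spheroids exposed to the agents for one week before reading; percent of vehicle DMSO control viability so 100% = untreated growth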
Numbers only, in %.

Record excerpt, results attached:
{"compound": "CC(C)n1c(=O)n(C)c2cnc3cc(F)c(-c4ccc(OCCCN5CCCCC5)nc4)cc3c21 + Cc1[nH]c2ccc(F)cc2c1-c1nc2c3cccnc3c3ncccc3c2[nH]1", "readout-value": 87.4}
{"compound": "CC1COCCN1c1cc(-c2ccnn2C)c2ccnc(-c3ccn[nH]3)c2n1 (stereo not given) + CN(C)c1ccc(Nc2c3ccc(NC(=O)CCN4CCCC4)cc3nc3cc(NC(=O)CCN4CCCC4)ccc23)cc1", "readout-value": 43.9}
{"compound": "COc1cc(C2c3cc4c(cc3C(OC3OC5COC(C)OC5C(O)C3O)C3COC(=O)C23)OCO4)cc(OC)c1O (stereo not given) + CN(C)c1ccc(Nc2c3ccc(NC(=O)CCN4CCCC4)cc3nc3cc(NC(=O)CCN4CCCC4)ccc23)cc1", "readout-value": 61.6}
{"compound": "Nc1ccn(C2OC(CO)C(O)C2(F)F)c(=O)n1 (stereo not given) + Cc1cnc(CNC(=O)c2c(=O)c3ccc(N4CCCN(C)CC4)nc3n3c2sc2ccccc23)cn1", "readout-value": 44.9}

GET /value?item= CC(=O)O[C@H]1C(=O)[C@@]2(C)[C@H]([C@H](OC(=O)c3ccccc3)[C@]3(O)C[C@H](OC(=O)[C@H](O)[C@@H](NC(=O)c4ccccc4)c4ccccc4)C(C)=C1C3(C)C)[C@]1(OC(C)=O)CO[C@@H]1C[C@@H]2O + Cc1cnc(CNC(=O)c2c(=O)c3ccc(N4CCCN(C)CC4)nc3n3c2sc2ccccc23)cn1 &field=viability, T/C returns 39.1

* * *

tested on: 598228-144-R-J1-PDC complex spheroid viability; assay: Anticancer human tumor 598228-144-R-J1-PDC cell line growth inhibition [GQUAD]; conditions: second compound 0.0316 µM; first compound 0.316 µM; active compounds read low;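 also: spheroids exposed to the agents for one week before reading; percent of vehicle DMSO control viability so 100% = untreated growth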
So I've got a bunch of compounds here, and I need their viability, T/C values.
Give bare numbers, in %.

Record excerpt, results attached:
{"compound": "CC1COCCN1c1cc(-c2ccnn2C)c2ccnc(-c3ccn[nH]3)c2n1 (stereo not drawn) + Cc1[nH]c2ccc(F)cc2c1-c1nc2c3cccnc3c3ncccc3c2[nH]1", "units-text": "%", "readout-value": 41.3}
{"compound": "COc1ncnc(C2CC2)c1-c1ncc2cnn(Cc3ccc(-c4nc(C(F)(F)F)cn4C(C)C)cc3)c2n1 + Cc1[nH]c2ccc(F)cc2c1-c1nc2c3cccnc3c3ncccc3c2[nH]1", "units-text": "%", "readout-value": 125}

Would you kindly look at the next entry?
GET /value?item= CC[C@@]1(O)C(=O)OCc2c1cc1n(c2=O)Cc2cc3c(CN(C)C)c(O)ccc3nc2-1 + Cc1[nH]c2ccc(F)cc2c1-c1nc2c3cccnc3c3ncccc3c2[nH]1 &field=viability, T/C returns 71.5

* * *

tested on: 598228-144-R-J1-PDC complex spheroid viability; experiment: Anticancer human tumor 598228-144-R-J1-PDC cell line growth inhibition [GQUAD]; settings: second compound 3.16 µM; first compound 0.1 µM; active compounds read low;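 also: spheroids exposed to the agents for one week before reading; percent of vehicle DMSO control viability so 100% = untreated growth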
Each record is given yes if its reported viability, T/C is strictly below 50%. Records at or above 50% are given no.

Completed entries (count: 4):
{"molecule": "CC(=O)O[C@H]1C(=O)[C@@]2(C)[C@H]([C@H](OC(=O)c3ccccc3)[C@]3(O)C[C@H](OC(=O)[C@H](O)[C@@H](NC(=O)c4ccccc4)c4ccccc4)C(C)=C1C3(C)C)[C@]1(OC(C)=O)CO[C@@H]1C[C@@H]2O + Cc1[nH]c2ccc(F)cc2c1-c1nc2c3cccnc3c3ncccc3c2[nH]1", "tgt": "598228-144-R-J1-PDC complex spheroid viability", "qualitative-label": "yes"}
{"molecule": "COc1ncnc(C2CC2)c1-c1ncc2cnn(Cc3ccc(-c4nc(C(F)(F)F)cn4C(C)C)cc3)c2n1 + CN(C)c1ccc(Nc2c3ccc(NC(=O)CCN4CCCC4)cc3nc3cc(NC(=O)CCN4CCCC4)ccc23)cc1", "tgt": "598228-144-R-J1-PDC complex spheroid viability", "qualitative-label": "no"}
{"molecule": "C=CCn1c(=O)c2cnc(Nc3ccc(N4CCN(C)CC4)cc3)nc2n1-c1cccc(C(C)(C)O)n1 + Cc1[nH]c2ccc(F)cc2c1-c1nc2c3cccnc3c3ncccc3c2[nH]1", "tgt": "598228-144-R-J1-PDC complex spheroid viability", "qualitative-label": "yes"}
{"molecule": "Nc1ccn(C2OC(CO)C(O)C2(F)F)c(=O)n1 (stereo not given) + CN(C)c1ccc(Nc2c3ccc(NC(=O)CCN4CCCC4)cc3nc3cc(NC(=O)CCN4CCCC4)ccc23)cc1", "tgt": "598228-144-R-J1-PDC complex spheroid viability", "qualitative-label": "yes"}

## Task Lab note: viability, T/C threshold 50%. Does this molecule come in strictly under it? CC1COCCN1c1cc(-c2ccnn2C)c2ccnc(-c3ccn[nH]3)c2n1 (stereo not given) + Cc1[nH]c2ccc(F)cc2c1-c1nc2c3cccnc3c3ncccc3c2[nH]1
## Result yes

## Task Lab note: viability, T/C threshold 50%. Does this molecule come in strictly under it? CC1COCCN1c1cc(C2(S(C)(=N)=O)CC2)nc(-c2ccnc3[nH]ccc23)n1 (stereo not given) + Cc1[nH]c2ccc(F)cc2c1-c1nc2c3cccnc3c3ncccc3c2[nH]1
## Result yes

* * *

So I've got a bunch of compounds here, and I need their viability, T/C values.
test system: 598228-144-R-J1-PDC complex spheroid viability; assay: Anticancer human tumor 598228-144-R-J1-PDC cell line growth inhibition [GQUAD]; conditions: second compound 1 µM; first compound 0.1 µM; active compounds read low;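 also: spheroids exposed to the agents for one week before reading; percent of vehicle DMSO control viability so 100% = untreated growth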
Give bare numbers, in %.

{"compound": "COc1ccc([C@@H](O)c2cc(-c3ncnc4cc(N5CCOCC5)ccc34)c(F)cc2Cl)nn1 + Cc1cnc(CNC(=O)c2c(=O)c3ccc(N4CCCN(C)CC4)nc3n3c2sc2ccccc23)cn1", "readout-value": 61.6}
{"compound": "O=C(c1cc(Cc2n[nH]c(=O)c3ccccc23)ccc1F)N1CCN(C(=O)C2CC2)CC1 + Cc1[nH]c2ccc(F)cc2c1-c1nc2c3cccnc3c3ncccc3c2[nH]1", "readout-value": 66.6}
{"compound": "O=C(NO)c1cnc(N2CCN(S(=O)(=O)c3ccc4ccccc4c3)CC2)nc1 + Cc1[nH]c2ccc(F)cc2c1-c1nc2c3cccnc3c3ncccc3c2[nH]1", "readout-value": 52.7}
{"compound": "COc1ncnc(C2CC2)c1-c1ncc2cnn(Cc3ccc(-c4nc(C(F)(F)F)cn4C(C)C)cc3)c2n1 + Cc1cnc(CNC(=O)c2c(=O)c3ccc(N4CCCN(C)CC4)nc3n3c2sc2ccccc23)cn1", "readout-value": 76.4}

GET /value?item= CCCS(=O)(=O)Nc1ccc(F)c(C(=O)c2c[nH]c3ncc(-c4ccc(Cl)cc4)cc23)c1F + Cc1[nH]c2ccc(F)cc2c1-c1nc2c3cccnc3c3ncccc3c2[nH]1 &field=viability, T/C returns 71.9

Each recorded value in this set is attributed to PubChem BioAssay AID2060506.
